Data provenance: patent US7888510B2

measurement.type: melting point (°C)

| compound | measurement.units | recorded.result |
| --- | --- | --- |
| Cc1cccc(CO)c1NC1CCN(CC(=O)Nc2ccc3c(c2)-c2ccccc2C3O)CC1 (stereo not drawn) [Example 5a] | °C | 133 |
| Cc1ccc(NC2CCN(CC(=O)Nc3ccc4c(c3)-c3ccccc3C4=O)CC2)c(CO)c1 [Example 2a] | °C | 152 |
